Origin of measurements: patent US20250034186A1

Below, each entry is listed alongside its reported half-life at 2 μM.
Experiment: in vitro
Type: in vitro ADME
Conditions: cynomolgus monkey, plasma, 37° C., up to 4 h, read-out: Cyno Plasma t1/2
Answer as a quantity: numeral, then unit.

Study these solved cases before continuing.
C[C@H](N[P@](=O)(OC[C@@]1(C#N)O[C@@H](c2ccc3c(N)ncnn23)[C@H](O)[C@@H]1O)Oc1ccccc1)C(=O)OC1CCCCC1 = 7.4 h
CCC(CC)COC(=O)[C@H](C)N[P@@](=O)(OC[C@@]1(C#N)O[C@@H](c2ccc3c(N)ncnn23)[C@H](O)[C@@H]1O)Oc1ccccc1 (single isomer, unassigned) = 2.97 h
CCC(CC)COC(=O)[C@H](C)NP(=O)(OC[C@@]1(C#N)O[C@@H](c2ccc3c(N)ncnn23)[C@H](O)[C@@H]1O)Oc1ccccc1 (stereo partly shown) [Compound 2, reference compound] = 4.82 h

Turning now to a further record.
Query: Query (molecule): `CCC(CC)COC(=O)[C@H](C)N[P@](=O)(OC[C@@]1(C#N)O[C@@H](c2ccc3c(N)ncnn23)[C@H](O)[C@@H]1O)Oc1ccccc1` ; field requested: half-life at 2 μM
Response: 4.28 h

###

Tested on: HRV14
Assay: HRV14 HeLa EC50
Type: cell-based, human rhinovirus
Conditions: Human rhinovirus sp., HRV14; H1-HeLa cells, 96 h, 37° C.
metric: pEC50
Remember, pEC50 is on a log scale: it is -log10 of the molar concentration.

// solved cases for pEC50 follow
C[C@H](N[P@](=O)(OC[C@@]1(C#N)O[C@@H](c2ccc3c(N)ncnn23)[C@H](O)[C@@H]1O)Oc1ccccc1)C(=O)OC1CCCCC1 = 7.11
CC(C)OC(=O)[C@H](C)NP(=O)(OC[C@@]1(C#N)O[C@@H](c2ccc3c(N)ncnn23)[C@H](O)[C@@H]1O)Oc1ccccc1 (some centres unmarked) = 5.74
CCC(CC)OC(=O)[C@H](C)NP(=O)(OC[C@@]1(C#N)O[C@@H](c2ccc3c(N)ncnn23)[C@H](O)[C@@H]1O)Oc1ccccc1 (some centres unmarked) = 5.46
CCOC(=O)[C@H](C)NP(=O)(OC[C@@]1(C#N)O[C@@H](c2ccc3c(N)ncnn23)[C@H](O)[C@@H]1O)Oc1ccccc1 (some centres unmarked) [Compound 1, reference compound] = 6.00

Next:
Query: Fill in the blank: the reported pEC50 of CCC(CC)COC(=O)[C@H](C)NP(=O)(OC[C@@]1(C#N)O[C@@H](c2ccc3c(N)ncnn23)[C@H](O)[C@@H]1O)Oc1ccccc1 (some centres unmarked) [Compound 2, reference compound] is ____.
Response: 6.77

###

Experiment: MT-4 cytotoxicity assay
Format: cell-based
Conditions: human, MT-4 cells (uninfected), 4-5 days, read-out: CC50 MT4
metric: CC50

Please review the entries below; each comes with its answer.
CCC(CC)COC(=O)[C@H](C)NP(=O)(OC[C@@]1(C#N)O[C@@H](c2ccc3c(N)ncnn23)[C@H](O)[C@@H]1O)Oc1ccccc1 (some centres unmarked) [Compound 2, reference compound] = > 43.7 µM
CCOC(=O)[C@H](C)NP(=O)(OC[C@@]1(C#N)O[C@@H](c2ccc3c(N)ncnn23)[C@H](O)[C@@H]1O)Oc1ccccc1 (some centres unmarked) [Compound 1, reference compound] = 52.4 µM
C[C@H](N[P@](=O)(OC[C@@]1(C#N)O[C@@H](c2ccc3c(N)ncnn23)[C@H](O)[C@@H]1O)Oc1ccccc1)C(=O)OC1CCCCC1 [Formula I] = 56.2 µM
CCOC(=O)[C@H](C)N[P@](=O)(OC[C@@]1(C#N)O[C@@H](c2ccc3c(N)ncnn23)[C@H](O)[C@@H]1O)Oc1ccccc1 [Compound 8] = 28.3 µM

From here, focus on the item given below.
Query: Entry under review: CCC(CC)COC(=O)[C@H](C)N[P@](=O)(OC[C@@]1(C#N)O[C@@H](c2ccc3c(N)ncnn23)[C@H](O)[C@@H]1O)Oc1ccccc1 [Compound 6] . Reported CC50?
Response: 38.8 µM

###

Test system: HRVc25 replicon
Test: HRVc25 HeLa replicon EC50
Type: cell-based
Details: Human rhinovirus sp., HRV25, H1-HeLa, 48 h, read-out: HRV25 Rep EC50
Method: First, HRV replicon RNA is prepared. 5 μg of DNA Template (HRVc15 or HRVc25) is linearized with 2 μL of MluI enzyme in NEB buffer-3 in a final volume of 25 μL for 3 hours at 37° C. […] Replicon activity is then measured by a Renilla-Glo Luciferase Assay system. Prior to signal quantification, plates are removed from incubators and are allowed to equilibrate to 25° C. after 50 uL is removed from each well. […]
metric: EC50 (nM)
Just the number in nM, nothing appended.

Query: I have this compound here, `C[C@H](N[P@](=O)(OC[C@@]1(C#N)O[C@@H](c2ccc3c(N)ncnn23)[C@H](O)[C@@H]1O)Oc1ccccc1)C(=O)OC1CCCCC1` , and I need its recorded EC50.
Response: 7

###

Known EC50 of a selection of molecules
Tested on: RSV A2
Experiment: RSV NHBE EC50, RSV A2 antiviral assay
Format: cell-based
Conditions: human respiratory syncytial virus, 96 h; RSV A2 in NHBE cells, 4 days
I only need the number, in nM, no unit after it.

CCC(CC)COC(=O)[C@H](C)N[P@](=O)(OC[C@@]1(C#N)O[C@@H](c2ccc3c(N)ncnn23)[C@H](O)[C@@H]1O)Oc1ccccc1 = 127

Query: What value of EC50 on RSV A2 does CCOC(=O)[C@H](C)NP(=O)(OC[C@@]1(C#N)O[C@@H](c2ccc3c(N)ncnn23)[C@H](O)[C@@H]1O)Oc1ccccc1 (stereo partly drawn) [Compound 1, reference compound] have?
Response: 549

Query: Kindly state the measured EC50 obtained for CCC(CC)COC(=O)[C@H](C)N[P@@](=O)(OC[C@@]1(C#N)O[C@@H](c2ccc3c(N)ncnn23)[C@H](O)[C@@H]1O)Oc1ccccc1 (single isomer, unassigned) with RSV A2.
Response: 91
